# test-target: T1, Recombinant DR3-Fc (R&D Systems, cat. #943-D3) (UniProt Q93038 25-199, limits assumed)
# T1 construct: dimeric MW~92 kDa; also called DR3 receptor; Fc-DR3; not shown: Fc part of the bought fusion
# T1 sequence (looked up): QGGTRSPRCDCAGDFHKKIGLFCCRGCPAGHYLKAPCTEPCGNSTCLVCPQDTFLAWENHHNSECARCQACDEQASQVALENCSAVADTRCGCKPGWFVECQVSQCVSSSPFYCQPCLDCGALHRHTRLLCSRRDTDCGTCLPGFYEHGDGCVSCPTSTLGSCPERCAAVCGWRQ
# test-protocol: ELISA, DR3-Fc immobilized
# EC50 per entry
Please give a number only; it is taken to be in nM.

{"binder": "TL1W116 (His-TEV-TL1A T192K) (ligand, also called TL1W116 (T192K)) HHHHHHENLYFQGLKGQEFAPSHQQVYAPLRADGDKPRAHLTVVRQTPTQHFKNQFPALHWEHELGLAFTKNRMNYTNKFLLIPESGDYFIYSQVTFRGMTSECSEIRQAGRPNKPDSITVVITKVTDSYPEPKQLLMGTKSVCEVGSNWFQPIYLGAMFSLQEGDKLMVNVSDISLVDYTKEDKTFFGAFLL", "value-observed": 77}

Read the next record carefully.
Query block: Provide only the value of recorded EC50 for TL1W113 (His-TEV-TL1A P189S) (ligand, also called TL1W113 (P189S)) HHHHHHENLYFQGLKGQEFAPSHQQVYAPLRADGDKPRAHLTVVRQTPTQHFKNQFPALHWEHELGLAFTKNRMNYTNKFLLIPESGDYFIYSQVTFRGMTSECSEIRQAGRPNKPDSITVVITKVTDSYSEPTQLLMGTKSVCEVGSNWFQPIYLGAMFSLQEGDKLMVNVSDISLVDYTKEDKTFFGAFLL
Result block: 1000
